All figures here come from the RNAGym collection of RNA variant scans (doi:10.7554/elife.80360).

B1: Twister Ribozyme (parent)
chain: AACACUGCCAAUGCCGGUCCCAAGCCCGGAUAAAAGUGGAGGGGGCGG

- Variants of: B1
- METHOD SUMMARY: self-cleavage, relative activity (ratio to wild type); higher = more cleavage; co-transcriptional
VALUE KIND: self-cleavage

[[record]]
mutation_list = "C27U G48A"
value_kind = "self-cleavage"
numeric_value = 0.633

[[record]]
mutation_list = "C9G G48U"
value_kind = "self-cleavage"
numeric_value = 0.377

[[record]]
mutation_list = "G13U G41C"
value_kind = "self-cleavage"
numeric_value = 0.149

[[record]]
mutation_list = "A4C C25U"
value_kind = "self-cleavage"
numeric_value = 0.058

[[record]]
mutation_list = "A2G A34C"
value_kind = "self-cleavage"
numeric_value = 0.151

[[record]]
mutation_list = "A4U U12A"
value_kind = "self-cleavage"
numeric_value = 0.0897

[[record]]
mutation_list = "U12C U31A"
value_kind = "self-cleavage"
numeric_value = 0.78

[[record]]
mutation_list = "A40C G47A"
value_kind = "self-cleavage"
numeric_value = 0.19

[[record]]
mutation_list = "G16U A32C"
value_kind = "self-cleavage"
numeric_value = 1.1

[[record]]
mutation_list = "A33G A34G"
value_kind = "self-cleavage"
numeric_value = 0.253

[[record]]
mutation_list = "G38A G47U"
value_kind = "self-cleavage"
numeric_value = 0.814

[[record]]
mutation_list = "G41U G47C"
value_kind = "self-cleavage"
numeric_value = 0.209

[[record]]
mutation_list = "C19A G45A"
value_kind = "self-cleavage"
numeric_value = 0.196

[[record]]
mutation_list = "U18A A35G"
value_kind = "self-cleavage"
numeric_value = 0.123

[[record]]
mutation_list = "A1U G48U"
value_kind = "self-cleavage"
numeric_value = 0.0644

[[record]]
mutation_list = "C9U A23U"
value_kind = "self-cleavage"
numeric_value = 0.0746

[[record]]
mutation_list = "A32C G47U"
value_kind = "self-cleavage"
numeric_value = 0.783

[[record]]
mutation_list = "A4C C15A"
value_kind = "self-cleavage"
numeric_value = 0.12

[[record]]
mutation_list = "G7A A11U"
value_kind = "self-cleavage"
numeric_value = 0.573

[[record]]
mutation_list = "A4U A32U"
value_kind = "self-cleavage"
numeric_value = 0.0867

[[record]]
mutation_list = "A2U A4G"
value_kind = "self-cleavage"
numeric_value = 0.413

[[record]]
mutation_list = "A10C G39C"
value_kind = "self-cleavage"
numeric_value = 0.172

[[record]]
mutation_list = "U12G C46A"
value_kind = "self-cleavage"
numeric_value = 0.706

[[record]]
mutation_list = "A22U A35C"
value_kind = "self-cleavage"
numeric_value = 0.778

[[record]]
mutation_list = "A23U G24A"
value_kind = "self-cleavage"
numeric_value = 0.0917

[[record]]
mutation_list = "C21U A34G"
value_kind = "self-cleavage"
numeric_value = 0.0608

[[record]]
mutation_list = "U12G G45C"
value_kind = "self-cleavage"
numeric_value = 0.288

[[record]]
mutation_list = "G29U U31C"
value_kind = "self-cleavage"
numeric_value = 0.972

[[record]]
mutation_list = "A2C G44C"
value_kind = "self-cleavage"
numeric_value = 0.035

[[record]]
mutation_list = "G7A A33U"
value_kind = "self-cleavage"
numeric_value = 0.269

[[record]]
mutation_list = "A4C G36U"
value_kind = "self-cleavage"
numeric_value = 0.0758

[[record]]
mutation_list = "A2G C15G"
value_kind = "self-cleavage"
numeric_value = 0.0529

[[record]]
mutation_list = "G7A G42A"
value_kind = "self-cleavage"
numeric_value = 0.176

[[record]]
mutation_list = "G13U A32U"
value_kind = "self-cleavage"
numeric_value = 0.489

[[record]]
mutation_list = "A11G G28U"
value_kind = "self-cleavage"
numeric_value = 0.725

[[record]]
mutation_list = "A2U G24C"
value_kind = "self-cleavage"
numeric_value = 0.109

[[record]]
mutation_list = "C14A G47A"
value_kind = "self-cleavage"
numeric_value = 0.749

[[record]]
mutation_list = "C15G A22G"
value_kind = "self-cleavage"
numeric_value = 0.0636

[[record]]
mutation_list = "A30G U31A"
value_kind = "self-cleavage"
numeric_value = 0.744

[[record]]
mutation_list = "C27G G42C"
value_kind = "self-cleavage"
numeric_value = 0.082

[[record]]
mutation_list = "G13A G47C"
value_kind = "self-cleavage"
numeric_value = 0.272

[[record]]
mutation_list = "U12G U18C"
value_kind = "self-cleavage"
numeric_value = 0.437

[[record]]
mutation_list = "C5A G42C"
value_kind = "self-cleavage"
numeric_value = 0.184

[[record]]
mutation_list = "U6G G38A"
value_kind = "self-cleavage"
numeric_value = 0.315

[[record]]
mutation_list = "G41A G43A"
value_kind = "self-cleavage"
numeric_value = 0.171

[[record]]
mutation_list = "A1C A30C"
value_kind = "self-cleavage"
numeric_value = 0.199

[[record]]
mutation_list = "A1G G48U"
value_kind = "self-cleavage"
numeric_value = 0.409

[[record]]
mutation_list = "G16A G28U"
value_kind = "self-cleavage"
numeric_value = 0.607

[[record]]
mutation_list = "A1U G47U"
value_kind = "self-cleavage"
numeric_value = 0.0673

[[record]]
mutation_list = "G13A U31G"
value_kind = "self-cleavage"
numeric_value = 1.01

[[record]]
mutation_list = "A1C C19U"
value_kind = "self-cleavage"
numeric_value = 0.205

[[record]]
mutation_list = "C19G A22G"
value_kind = "self-cleavage"
numeric_value = 0.0844

[[record]]
mutation_list = "A35G G41U"
value_kind = "self-cleavage"
numeric_value = 0.283

[[record]]
mutation_list = "U12G U31C"
value_kind = "self-cleavage"
numeric_value = 0.907

[[record]]
mutation_list = "C25A G44U"
value_kind = "self-cleavage"
numeric_value = 0.107

[[record]]
mutation_list = "C3A C19G"
value_kind = "self-cleavage"
numeric_value = 0.0471

[[record]]
mutation_list = "U31C G41C"
value_kind = "self-cleavage"
numeric_value = 0.306

[[record]]
mutation_list = "A10C G45A"
value_kind = "self-cleavage"
numeric_value = 0.881

[[record]]
mutation_list = "G29C G42U"
value_kind = "self-cleavage"
numeric_value = 0.129

[[record]]
mutation_list = "C3A G7C"
value_kind = "self-cleavage"
numeric_value = 0.0682

[[record]]
mutation_list = "G36U G38A"
value_kind = "self-cleavage"
numeric_value = 0.452

[[record]]
mutation_list = "G29A A32U"
value_kind = "self-cleavage"
numeric_value = 0.949

[[record]]
mutation_list = "A34G G41C"
value_kind = "self-cleavage"
numeric_value = 0.12

[[record]]
mutation_list = "A4U G39A"
value_kind = "self-cleavage"
numeric_value = 0.0691

[[record]]
mutation_list = "A23G G47A"
value_kind = "self-cleavage"
numeric_value = 0.265

[[record]]
mutation_list = "A23G A40C"
value_kind = "self-cleavage"
numeric_value = 0.0453

[[record]]
mutation_list = "C3G G24U"
value_kind = "self-cleavage"
numeric_value = 0.0918

[[record]]
mutation_list = "C19A A35G"
value_kind = "self-cleavage"
numeric_value = 0.095

[[record]]
mutation_list = "G38U C46G"
value_kind = "self-cleavage"
numeric_value = 0.818

[[record]]
mutation_list = "U6G C15A"
value_kind = "self-cleavage"
numeric_value = 0.301

[[record]]
mutation_list = "C21G G28U"
value_kind = "self-cleavage"
numeric_value = 0.0788

